- System: SN12C renal
- EXPERIMENT: NCI-60 one-dose screen, 48 h
- RECORDED_CONDITIONS: 10 µM unless noted
This is part of a sample that, as a whole, favours compounds with a hit. Of some 83,000 tested, about 20% had one in any assay. Active and inactive are the calls of the source. The calls were made as follows: active = growth percent below 10; inactive = the rest.
Hi there, use one of these labels in your reply, thanks! active, inactive

# count of solved cases: 10
>>> qualitative_label("CN1CCN(Cc2ccc(NC(=O)c3nc4ccc5[nH]ncc5c4c4c3CCC4)cc2C(F)(F)F)CC1")
"active"
>>> qualitative_label("CC1CCC(C)N(C)C1 (stereo unspecified)")
"inactive"
>>> qualitative_label("COc1cccc(/C=C/C(=O)Nc2cc(OC)c3c(c2)OCO3)c1")
"inactive"
>>> qualitative_label("Clc1ccccc1-c1nc2ccccc2[nH]1")
"inactive"
>>> qualitative_label("CNC(=S)NNC(=O)C1CC1")
"inactive"
>>> qualitative_label("Cc1ccc(-c2cc3nc(C(Cl)Cl)nc(-c4ccccc4C)n3n2)cc1")
"inactive"
>>> qualitative_label("COc1ccc(Nc2[nH]n3c(=O)cc(-c4ccccc4)nc3c2C(=O)Nc2ccc(C)cc2)c(OC)c1")
"inactive"
>>> qualitative_label("COc1ccc(-c2ccc(C)n2-c2ccc(-c3nc4cc(Cl)ccc4s3)cc2)cc1")
"inactive"
>>> qualitative_label("O=C(C1=Cc2cc3ccccc3n2Cc2cnnn21)c1ccccc1")
"inactive"
>>> qualitative_label("NC1=C(/C(N)=N/O)C(c2ccccc2)c2ccc3ccccc3c2O1 (stereo unspecified)")
"inactive"

Query block: Hey, what did the test say about `CN(C)CCN1C(=O)c2ccc3c4c(ccc(c24)C1=O)C(=O)N(CCN=C=S)C3=O` ?
Result block: active

###

As shown below, each of these compounds has a reported growth value.
- Tested on: CCRF-CEM leukemia
- EXPERIMENT: NCI-60 one-dose screen, 48 h (100 = growth as untreated, 0 = no growth, -100 = all killed)
- RECORDED_CONDITIONS: 10 µM unless noted
This is part of a sample that, as a whole, favours compounds with a hit. Of some 83,000 tested, about 20% had one in any assay.
Number in %, nothing else.

Use these answered entries as a reference point.
>>> value_reported("COc1ccc(C2CC(c3ccc(OC)cc3OC)=NN2c2ccc(S(N)(=O)=O)cc2)cc1 (stereo not given)")
75.5
>>> value_reported("COc1ccc(-c2c(-c3cc(OC)c4c(c3)OCO4)noc2N)cc1")
14.1
>>> value_reported("CNC(=S)NNC(=O)C1CC1")
97.3
>>> value_reported("O=C(Nc1ccc(NCCN2CCOCC2)nc1)c1ccc([N+](=O)[O-])cc1")
101
>>> value_reported("COc1ccc(-c2nc(N3CCCC3=O)sc2Br)cc1OC")
96.4

Query block: I'd like to know its growth. The compound in question is `COc1cccc(-c2nc3sccn3c2-c2ccnc(NCCCNS(=O)(=O)c3ccc(C(F)(F)F)cc3)c2)c1`
Result block: 40.4

Query block: I'd like to know its growth. The compound in question is C=C1CCC2C(C)(CO)C(O)CCC2(C)C1C/C=C1/C(=O)OCC1O/C=C/c1ccccc1 (stereo not given)
Result block: 10.7

Query block: I'd like to know its growth. The compound in question is `COc1ccc(-n2c(=O)sc3c(Cl)nc(C)nc32)c(OC)c1`
Result block: 55.9

Query block: I'd like to know its growth. The compound in question is `O=c1[nH]c(-c2ccccc2)nc(CN2CCCCC2)c1O`
Result block: 96.8

Query block: I'd like to know its growth. The compound in question is `Cn1c2ccc(Br)cc2c2c3c(c4c5ccccc5[nH]c4c21)C(=O)N(O)C3=O`
Result block: -16

Values compiled from PubChem BioAssay (NCI).
